tested on: E21 (patient-derived glioblastoma stem cells of mesenchymal subtype); assay: phenotypic distance (Euclidean, principal components) from DMSO controls (arbitrary units); higher = stronger morphological change; conditions: 333.3 nM; exposure time: 72 h;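 note: cell Painting imaging in 384-well plates, CellProfiler features reduced to at least 20 principal components, Euclidean distance versus same-plate DMSO vehicle wells (0.1% v/v), median over six images per well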
Structures can show the parent of a compound that is named as a salt.
ENDPOINT: phenotypic distance
Numbers only.

1) CN1[C@@H]2CC[C@H]1CC(OC(=O)c1c[nH]c3ccccc13)C2 (stereo partly specified) [3-Tropanyl-indole-3-carboxylate hydrochloride]; 0.781
2) O=C(C1CC1)N1CC[C@@H](Cc2n[nH]c(=O)n2-c2ccc(-c3ccc4occc4c3)cc2)C1; 2.64
3) Cc1cc(Nc2cc(CN3CCOCC3)c3nc(C)c(Cc4ccc(Cl)cc4F)n3n2)n[nH]1 [Gandotinib]; 2.89
4) Nc1ncn(C2OC(CO)C(O)C2O)c(=O)n1 (stereo unspecified) [Azacytidine-5]; 1.28
5) COc1cc([C@@H]2c3cc4c(cc3[C@@H](O[C@@H]3O[C@@H]5CO[C@@H](c6cccs6)O[C@H]5[C@H](O)[C@H]3O)[C@H]3COC(=O)[C@H]23)OCO4)cc(OC)c1O [Teniposide]; 5.06
6) Cc1cccn2c(=O)c(-c3nnn[nH]3)cnc12 [Pemirolast potassium]; 0.31

# batch: return phenotypic distance for each of the 4 compounds below
1. COC(=O)Nc1nc2cc(C(=O)c3ccccc3)ccc2[nH]1 [Mebendazole]
2. Cc1c2ccncc2c(C)c2c1[nH]c1ccccc12 [Ellipticine]
3. C=C[C@H]1CN2CC[C@H]1C[C@@H]2[C@@H](O)c1ccnc2ccc(OC)cc12 [Quinidine hydrochloride monohydrate]
4. N=c1ccn2c(n1)O[C@H]1[C@H](O)[C@@H](CO)O[C@H]12 [Ancitabine hydrochloride]

Result:
[7.72, 2.29, 0.814, 3.95]

Batch request: phenotypic distance per item, same order as input.
1. CCCCCCC[N+](CC)(CC)CCCCc1ccc(Cl)cc1 [Clofilium tosylate]
2. C[C@H](NC(=O)[C@@H](O)c1cc(F)cc(F)c1)C(=O)N[C@@H]1C(=O)N(C)c2ccccc2-c2ccccc21
3. COc1cc2c(NC3CCN(C(C)C)CC3)nc(C3CCCCC3)nc2cc1OCCCN1CCCC1 [UNC0638]
4. COc1cc(/C=C/C(=O)N2CCC=CC2=O)cc(OC)c1OC [Piperlongumine]
5. CC[C@]1(O)C[C@@H]2CN(CCc3c([nH]c4ccccc34)[C@@](C(=O)OC)(c3cc4c(cc3OC)N(C)[C@H]3[C@@](O)(C(=O)OC)[C@H](OC(C)=O)[C@]5(CC)C=CCN6CC[C@]43[C@@H]65)C2)C1 [Vinblastine sulfate]

Result:
1.29
3.99
0.574
0.682
8.35

Request: // query phenotypic distance value for entry CCn1c(-c2nonc2N)nc2cnc(Oc3cccc(NC(=O)c4ccc(OCCN5CCOCC5)cc4)c3)cc21
Result: 1.94

###

Provide the recorded surviving fraction for the entries that follow.
tested on: FT3469 (normal neural stem cell line); assay: surviving fraction (nuclei count normalised to DMSO); higher = more cells surviving (less toxic); settings: 4.1 nM; exposure time: 72 h;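 note: nuclei counted by high-content imaging of Hoechst-stained cells in laminin-coated 384-well plates, relative to 0.1% DMSO vehicle wells, with staurosporine as cell-death control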
Structures can show the parent of a compound that is named as a salt.
Answers are plain numbers.

1) Nc1ccc(-c2ccc3ncc4ccc(=O)n(-c5cccc(C(F)(F)F)c5)c4c3c2)cn1 [Torin2]; 0.978
2) CC[C@]1(O)C[C@@H]2CN(CCc3c([nH]c4ccccc34)[C@@](C(=O)OC)(c3cc4c(cc3OC)N(C)[C@H]3[C@@](O)(C(=O)OC)[C@H](OC(C)=O)[C@]5(CC)C=CCN6CC[C@]43[C@@H]65)C2)C1 [Vinblastine sulfate]; 0.427

Dear reader, for each entry below, please note its surviving fraction.
1. COc1cc(NS(C)(=O)=O)ccc1Nc1c2ccccc2nc2ccccc12 [Amsacrine]
2. C/C=C1\NC(=O)[C@H]2CSSCC/C=C/[C@H](CC(=O)N[C@H](C(C)C)C(=O)N2)OC(=O)[C@H](C(C)C)NC1=O [Romidepsin]
3. COc1cc2c(NC3CCN(C(C)C)CC3)nc(C3CCCCC3)nc2cc1OCCCN1CCCC1 [UNC0638]

Result:
1: 0.745; 2: 0.237; 3: 1.03
